Read-out: adenosine kinase (ADK) gene, ADK (gene 132)
assay: LTEA_HepaRG_ADK: Life Technologies and Expression Analysis (LTEA) Assay for adenosine kinase (ADK) gene using HepaRG (AID 2283471)
test-context: mRNA level, 48 h; actives raise or lower the signal
Experimental: LTEA_HepaRG is a cell based, multiplexed-readout assay that uses HepaRG, a human liver cell line, with measurements taken at 48 hours after chemical dosing on a 96-well plate.LTEA_HepaRG_ADK is one of 102 assay component(s) measured in the LTEA HepaRG cell culture assay. It is a marker of Steatosis.Data from the assay component LTEA_HepaRG_ADK was analyzed into 1 endpoint. […]
Active and inactive are the calls of the source. How the source made its calls: active means hit-call score of the fitted dose curve at least 0.9, where 1 is the maximum; inactive means score below 0.9.
Give one outcome, nothing more. List: YES = active, NO = inactive

Hello, I am checking results. What call was entered for CCC(C)(C)C(=O)OC1=C(c2ccc(Cl)cc2Cl)C(=O)OC12CCCCC2 ?
NO

Hello, I am checking results. What call was entered for CCN(CC)C(=O)SCc1ccc(Cl)cc1 ?
NO

Hello, I am checking results. What call was entered for O=C(NC(=O)c1c(F)cccc1F)Nc1ccc(OC(F)(F)C(F)OC(F)(F)F)c(Cl)c1 (stereo not given) ?
NO

Hello, I am checking results. What call was entered for CN1CSC(=S)N(C)C1 ?
NO

Hello, I am checking results. What call was entered for CNC(=O)Oc1cccc(N=CN(C)C)c1 ?
NO

Hello, I am checking results. What call was entered for Cc1[nH]c(=O)n(C(C)(C)C)c(=O)c1Cl ?
NO

Hello, I am checking results. What call was entered for COP(=S)(OC)Oc1ccc([N+](=O)[O-])cc1 ?
NO

Hello, I am checking results. What call was entered for O=C(Nc1ccccc1)Nc1cnns1 ?
NO

Hello, I am checking results. What call was entered for O=S1OCC2C(CO1)C1(Cl)C(Cl)=C(Cl)C2(Cl)C1(Cl)Cl (stereo not given) ?
NO

Hello, I am checking results. What call was entered for O=[N+]([O-])/N=C1\NCCN1Cc1ccc(Cl)nc1 ?
YES

---

assay: APR_HepG2_CellLoss_72hr: Apredica 72-hour HepG2 Assay for Cell Loss (AID 2282915)
test-context: high-content imaging
Active and inactive are the calls of the source. The calls were made as follows: active = hit-call score of the fitted dose curve at least 0.9, where 1 is the maximum; inactive = score below 0.9.
Give one outcome, nothing more. List: T = active, F = inactive

Hello, I am checking results. What call was entered for CC1(c2ccc(Oc3ccccc3)cc2)OC(=O)N(Nc2ccccc2)C1=O (stereo unspecified) ?
T

Hello, I am checking results. What call was entered for CCOCN(C(=O)CCl)c1c(C)cccc1CC ?
T

Hello, I am checking results. What call was entered for COc1nn(CSP(=S)(OC)OC)c(=O)s1 ?
F

Hello, I am checking results. What call was entered for C[C@H]1[C@H](c2ccc(Cl)cc2)SC(=O)N1C(=O)NC1CCCCC1 ?
T

Hello, I am checking results. What call was entered for CC(C)N(C(=O)COc1nnc(C(F)(F)F)s1)c1ccc(F)cc1 ?
T

Hello, I am checking results. What call was entered for Cc1cc(C)nc(NC(=O)NS(=O)(=O)c2ccccc2C(=O)OC2COC2)n1 ?
F

Hello, I am checking results. What call was entered for CNC(=O)Oc1ccccc1OC(C)C ?
F

Hello, I am checking results. What call was entered for CCOC1Oc2ccc(OS(C)(=O)=O)cc2C1(C)C (stereo unspecified) ?
T

Hello, I am checking results. What call was entered for O=[N+]([O-])c1c(Cl)c(Cl)c(Cl)c(Cl)c1Cl ?
F

Hello, I am checking results. What call was entered for O=C1c2ccccc2C(=O)N1SC(Cl)(Cl)Cl ?
T

Hello, I am checking results. What call was entered for CC[C@H](C)[C@H]1O[C@]2(C=C[C@@H]1C)C[C@@H]1C[C@@H](C/C=C(\C)[C@@H](O[C@H]3C[C@H](OC)[C@@H](O[C@H]4C[C@H](OC)[C@@H](O)[C@H](C)O4)[C@H](C)O3)[C@@H](C)/C=C/C=C3\CO[C@@H]4[C@H](O)C(C)=C[C@@H](C(=O)O1)[C@]34O)O2 (tested in a mixture with another compound) ?
F

Hello, I am checking results. What call was entered for COC(=O)c1ccccc1S(=O)(=O)NC(=O)Nc1nc(C)nc(OC)n1 ?
F

Hello, I am checking results. What call was entered for OCCOc1ccccc1 ?
F

Hello, I am checking results. What call was entered for COP(=O)(OC)OC=C(Cl)Cl ?
T

Hello, I am checking results. What call was entered for CCC(C)Nc1c([N+](=O)[O-])cc(C(C)(C)C)cc1[N+](=O)[O-] (stereo unspecified) ?
T

Hello, I am checking results. What call was entered for COc1cc(OC)nc(NC(=O)NS(=O)(=O)c2cc(NC=O)ccc2C(=O)N(C)C)n1 ?
F

This collection of values is drawn from PubChem BioAssay (EPA / NIEHS).
